The measured values listed here are drawn from PubChem BioAssay (NCI).

Tested on: DU-145 prostate
Assay: NCI-60 one-dose screen, 48 h
Conditions: 10 µM unless noted
The panel holds about 83,000 compounds, 20% with a hit somewhere; the sample as a whole holds those more often. Active and inactive are the calls of the source. How the source made its calls: active means growth percent below 10; inactive means the rest.
Outcomes: active, inactive

COMPOUND	TARGET	DISCRETE LABEL
Cc1cc(N/N=C/c2nc(-c3ccccc3)oc2C)c2cc(Cl)ccc2n1	DU-145 prostate	active
COc1cc(NC(N)=NCCC(C)(C)c2ccc(C(F)(F)F)cc2)ncc1C#N	DU-145 prostate	inactive
COc1cc(/C(C#N)=C/c2ccc3c(c2OC)OCO3)cc2c1OCO2	DU-145 prostate	inactive
CCCC(=O)Oc1ccc(/C(=C(\C)c2ccccc2)c2ccc(OCCN(CC)CC)cc2)cc1	DU-145 prostate	inactive
O=c1[nH]c(-c2ccccc2)nc(CN2CCCCC2)c1O	DU-145 prostate	inactive
COc1cccc(CC(C)=C(c2ccc(OCCN3CCCCC3)cc2)c2ccc(OCCN3CCCCC3)cc2)c1	DU-145 prostate	inactive
COc1cc(/C=C/C(=O)N2CCN(C(=O)/C=C/c3cc(OC)c(OC)c(OC)c3)CC2)cc(OC)c1OC	DU-145 prostate	inactive
O=c1ccn(-c2ncnc3nc[nH]c23)cc1	DU-145 prostate	inactive
N=C(N)c1ccc(-c2ccc(-c3ccc4ccccc4c3)s2)cc1	DU-145 prostate	inactive
Clc1ccccc1-c1nc2ccccc2[nH]1	DU-145 prostate	inactive
COc1ccc(-c2cn(-c3cccc(C(=O)/C=C/c4cc(OC)c(OC)c(OC)c4)c3)c(=O)[nH]2)cc1OC	DU-145 prostate	inactive
O=c1cc(Cc2ccc([N+](=O)[O-])cc2)[nH]c(=O)[nH]1	DU-145 prostate	inactive
Nc1cc2c([nH]c[n+]2CC#CCCl)c(SCC#CCCl)n1	DU-145 prostate	active
COc1cccc(CC(C)=C(c2ccc(OCCN(C)C)cc2)c2ccc(OCCN(C)C)cc2)c1	DU-145 prostate	inactive
COc1ccc(C(=O)NC(=O)Nc2cc3c(cc2F)/C(=C/c2[nH]c(C)c(CCC(=O)O)c2C)C(=O)N3)c(F)c1	DU-145 prostate	inactive
Cc1csc(NC(c2ccccc2)c2c(C)nc3ccccn23)n1 (stereo not given)	DU-145 prostate	inactive
CC(=O)OC[C@]12CC[C@H]3[C@@H](C[C@H]4O[C@]45CC=CC(=O)[C@]35C)[C@]1(O)CC[C@@]2(O)[C@@](C)(O)C1CC(C)=C(C)C(=O)O1 (stereo not given in full)	DU-145 prostate	active
N=C(N)c1ccc(-c2ccc(-c3cncc4ccccc34)s2)cc1F	DU-145 prostate	active
CCN(CC)c1ccc(CNc2ccnc3ccccc23)cc1	DU-145 prostate	inactive
COc1ccc(NC(=O)c2cc(OC)c(OC)c(OC)c2)cc1O	DU-145 prostate	inactive
CC(C)(C)Nc1c(-c2cccs2)nc2ncccn12	DU-145 prostate	inactive
COc1cc(Nc2ncccc2C(=O)NCc2cn(Cc3cccc(Oc4ccccc4)c3)nn2)cc(OC)c1	DU-145 prostate	inactive
Cc1ccc(N2CCN(C(C)C(N)=O)CC2)cc1 (stereo not given)	DU-145 prostate	inactive
CCOC(=O)c1cn2c3c(cccc3c1=O)C(=O)/C(=C/c1cccc(Cl)c1Cl)C2	DU-145 prostate	inactive
O=C(NNC(=O)N1c2ccccc2C=Cc2ccccc21)c1ccc2ccccc2c1	DU-145 prostate	inactive
OB(O)c1cccc(-c2nc3ccc4[nH]ncc4c3c3c2CCCC3)c1F	DU-145 prostate	inactive
CCOC(=O)CN1/C(=N/c2sc3c(c2C(=O)OCC)CCN(C(=O)OCC)C3)SC(=O)/C1=C\C(=O)OC	DU-145 prostate	inactive
Cc1ccc(-c2nc(C#N)c(S(=O)(=O)n3nc(-c4ccccc4)cc3N)o2)cc1	DU-145 prostate	inactive
C=C1CCC2C(C)(CO)C(O)CCC2(C)C1CC(NCc1ccccc1)C1=CCOC1=O (stereo not given)	DU-145 prostate	inactive
CN1CCN(Cc2ccc(NC(=O)c3nc4ccc5[nH]ncc5c4c4c3CCC4)cc2C(F)(F)F)CC1	DU-145 prostate	active
O=C(NCCNc1nccc(-n2ccc3cccnc32)n1)c1ccc(C(F)(F)F)cc1	DU-145 prostate	inactive
O=[N+]([O-])c1ccc(/C=C/C2(CCl)OCCO2)cc1	DU-145 prostate	inactive
COc1cc(-c2nc(N=Nc3c(O)[nH]c4ccc(Br)cc34)[nH]c(=O)c2C#N)cc(OC)c1OC	DU-145 prostate	inactive
Cc1ccc(S(=O)(=O)Nc2c(Br)cc(Br)cc2C(N)=O)cc1	DU-145 prostate	inactive
O=C(Nc1cccc(-n2cc(-c3ccncc3)c(-c3ccc(Cl)c(O)c3)n2)c1)c1ccc(N2CCOCC2)c(C(F)(F)F)c1	DU-145 prostate	inactive
O=c1[nH]c2ccc(Br)cc2c2c1C(c1ccc(Cl)cc1)c1c(ncn3nc(-c4ccco4)nc13)O2 (stereo not given)	DU-145 prostate	inactive
CC(C)(C)NCCC(O)c1cc2c(Cl)cc(Cl)cc2c2cc(C(F)(F)F)ccc12 (stereo not given)	DU-145 prostate	active
CC(C)(C)OC(=O)NCCc1ccc(N=C=S)cc1	DU-145 prostate	inactive
CCOC(=O)c1ccc2c(c1)c1c(C)c3cccnc3c(C)c1n2C	DU-145 prostate	inactive
Cc1ccc(-c2nc(C(Cl)Cl)n3nc(-c4ccccc4)cc3n2)cc1	DU-145 prostate	active
